src = the Human Domainome abundance scans (Beltran et al. 2025)

B1: Mineralocorticoid receptor, residues 600 to 675; numbered along this chain, P08235 (parent)
chain: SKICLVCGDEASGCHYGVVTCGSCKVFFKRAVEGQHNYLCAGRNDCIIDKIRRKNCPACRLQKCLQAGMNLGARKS

Variants of: B1
Test: abundance fitness (aPCA) (normalised: wild type 0, dead -1); higher = more abundant; growth selection in yeast, the domain comes from the species named
Conditions: Homo sapiens
Quick list: abundance fitness per entry.
Value kind: abundance fitness

biosequence=SKICLVCGDEASGCHYGVVTCGSCKVFFKRAVEGQHNYLCAGRNDCIIDKIRRKNCPACRLQLCLQAGMNLGARKS value_kind="abundance fitness" test_result=-0.092
biosequence=SKICLDCGDEASGCHYGVVTCGSCKVFFKRAVEGQHNYLCAGRNDCIIDKIRRKNCPACRLQKCLQAGMNLGARKS value_kind="abundance fitness" test_result=-0.765
biosequence=SKICLVCGDEASGCHYGVVTCGSCKVFFKRAVEGQHNYLCAGRNDCIIDKIRRKNCNACRLQKCLQAGMNLGARKS value_kind="abundance fitness" test_result=-0.018
biosequence=SKICLVCGDEASGCHYGVVTCGSCKVFFKRAVEGQHNYLCAGRNDCIIDKYRRKNCPACRLQKCLQAGMNLGARKS value_kind="abundance fitness" test_result=0.048
biosequence=SKICLVCKDEASGCHYGVVTCGSCKVFFKRAVEGQHNYLCAGRNDCIIDKIRRKNCPACRLQKCLQAGMNLGARKS value_kind="abundance fitness" test_result=-0.019
biosequence=SKICLVCGDEASGCHYGVVTCGSCKVFFKRAVEGQHNYLCAGRNDCIIDKIRRKNCPACRLQKCLQAGMNLIARKS value_kind="abundance fitness" test_result=-0.02
biosequence=YKICLVCGDEASGCHYGVVTCGSCKVFFKRAVEGQHNYLCAGRNDCIIDKIRRKNCPACRLQKCLQAGMNLGARKS value_kind="abundance fitness" test_result=0
biosequence=SKICLVCGDEASGCHYGVVTCGSCKVFFKRAVEGQHNDLCAGRNDCIIDKIRRKNCPACRLQKCLQAGMNLGARKS value_kind="abundance fitness" test_result=-0.041
biosequence=SYICLVCGDEASGCHYGVVTCGSCKVFFKRAVEGQHNYLCAGRNDCIIDKIRRKNCPACRLQKCLQAGMNLGARKS value_kind="abundance fitness" test_result=-0.085
biosequence=SKICLVCGDTASGCHYGVVTCGSCKVFFKRAVEGQHNYLCAGRNDCIIDKIRRKNCPACRLQKCLQAGMNLGARKS value_kind="abundance fitness" test_result=-0.032
biosequence=SKICLVCGDEASGCHCGVVTCGSCKVFFKRAVEGQHNYLCAGRNDCIIDKIRRKNCPACRLQKCLQAGMNLGARKS value_kind="abundance fitness" test_result=-0.054
